- System: AMPA receptor
- protocol text: In vivo electrophysiology: amplitude of field EPSP in dentate gyrus of anesthetized animals
- recorded conditions: 10 mpk i.p.
Listing of recorded % increase in the amplitude of the field EPSP in the dentate gyrus of rat by entry.
Please reply with the bare figure in % and do not write the unit itself.

Examples with answers:
Incoming: Complete the entry with % increase in the amplitude of the field EPSP in the dentate gyrus of rat for `O=C(c1ccc2nonc2c1)N1C2CCC1CC(F)(F)C2`
Outgoing: 8

Incoming: Complete the entry with % increase in the amplitude of the field EPSP in the dentate gyrus of rat for `O=C(c1ccc2nonc2c1)N1C2CCCC1CC2`
Outgoing: 22

Incoming: Complete the entry with % increase in the amplitude of the field EPSP in the dentate gyrus of rat for `O=C1CC2CCC(C1)N2C(=O)c1ccc2nonc2c1`
Outgoing: 16

We now examine a further compound.
Incoming: Complete the entry with % increase in the amplitude of the field EPSP in the dentate gyrus of rat for O=C(c1ccc2nonc2c1)N1C2C=C(F)CC1CC2 (stereo not shown)
Outgoing: 25
